test system: A. bumannii; test: in vitro antibacterial activity (MIC50); assay type: cell-based; details: A. bumannii
Quantity measured: in vitro antibacterial activity of individual antibiotic (MIC50) (µg/mL)
Write the value in µg/mL as a bare number.

Which in vitro antibacterial activity of individual antibiotic (MIC50) value belongs to CN[C@H](CC(C)C)C(=O)N[C@H]1C(=O)N[C@@H](CC(N)=O)C(=O)N[C@H]2C(=O)N[C@H]3C(=O)N[C@H](C(=O)N[C@H](C(=O)O)c4cc(O)cc(O)c4-c4cc3ccc4O)[C@H](O)c3ccc(c(Cl)c3)Oc3cc2cc(c3O[C@@H]2O[C@H](CO)[C@@H](O)[C@H](O)[C@H]2O[C@H]2C[C@](C)(N)[C@H](O)[C@H](C)O2)Oc2ccc(cc2Cl)[C@H]1O ?
79400

One more molecule: C[C@@H](O)[C@H]1C(=O)N2C(C(=O)O)=C(SCCN=CN)C[C@H]12
10250

Consider next the molecule NC[C@H]1O[C@H](O[C@H]2[C@H](O)[C@@H](O[C@H]3O[C@H](CO)[C@@H](O)[C@H](N)[C@H]3O)[C@H](N)C[C@@H]2N)[C@H](N)C[C@@H]1O in the same way.
1050

Try this molecule next: CO[C@H]1/C=C/O[C@@]2(C)Oc3c(C)c(O)c4c(O)c(c(/C=N/N5CCN(C)CC5)c(O)c4c3C2=O)NC(=O)/C(C)=C\C=C\[C@H](C)[C@H](O)[C@@H](C)[C@@H](O)[C@@H](C)[C@H](OC(C)=O)[C@@H]1C
85

Next molecule up: CCC[C@@H]1C[C@@H](C(=O)N[C@@H]([C@H]2O[C@H](SC)[C@H](O)[C@@H](O)[C@H]2O)[C@H](C)Cl)N(C)C1
2720

FYI, the data here is from patent US20130089599A1.
